Each entry below carries its recorded EC50 hC3 cleavage.
Target Or System: plasma purified human complement protein C3 (human) (UniProt P01024)
Sequence (P01024 23-667, chain 1 of 2): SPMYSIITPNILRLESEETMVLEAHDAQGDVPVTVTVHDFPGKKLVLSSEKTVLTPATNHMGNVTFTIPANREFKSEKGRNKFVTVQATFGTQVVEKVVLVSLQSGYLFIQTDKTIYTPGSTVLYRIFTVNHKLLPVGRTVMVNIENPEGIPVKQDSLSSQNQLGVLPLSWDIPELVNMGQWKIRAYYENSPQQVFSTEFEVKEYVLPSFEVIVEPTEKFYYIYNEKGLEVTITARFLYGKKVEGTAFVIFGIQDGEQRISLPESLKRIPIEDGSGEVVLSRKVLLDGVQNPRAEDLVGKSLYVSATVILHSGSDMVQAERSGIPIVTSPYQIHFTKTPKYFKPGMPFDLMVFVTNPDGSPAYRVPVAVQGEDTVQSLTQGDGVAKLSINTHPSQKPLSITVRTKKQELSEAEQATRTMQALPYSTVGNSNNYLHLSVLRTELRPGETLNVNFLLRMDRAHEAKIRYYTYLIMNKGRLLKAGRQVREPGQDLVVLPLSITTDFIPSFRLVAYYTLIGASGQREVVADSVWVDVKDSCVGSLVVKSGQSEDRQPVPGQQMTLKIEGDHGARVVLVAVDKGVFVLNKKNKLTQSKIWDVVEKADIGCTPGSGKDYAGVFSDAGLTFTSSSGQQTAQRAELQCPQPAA
Sequence (P01024 672-1663, chain 2 of 2): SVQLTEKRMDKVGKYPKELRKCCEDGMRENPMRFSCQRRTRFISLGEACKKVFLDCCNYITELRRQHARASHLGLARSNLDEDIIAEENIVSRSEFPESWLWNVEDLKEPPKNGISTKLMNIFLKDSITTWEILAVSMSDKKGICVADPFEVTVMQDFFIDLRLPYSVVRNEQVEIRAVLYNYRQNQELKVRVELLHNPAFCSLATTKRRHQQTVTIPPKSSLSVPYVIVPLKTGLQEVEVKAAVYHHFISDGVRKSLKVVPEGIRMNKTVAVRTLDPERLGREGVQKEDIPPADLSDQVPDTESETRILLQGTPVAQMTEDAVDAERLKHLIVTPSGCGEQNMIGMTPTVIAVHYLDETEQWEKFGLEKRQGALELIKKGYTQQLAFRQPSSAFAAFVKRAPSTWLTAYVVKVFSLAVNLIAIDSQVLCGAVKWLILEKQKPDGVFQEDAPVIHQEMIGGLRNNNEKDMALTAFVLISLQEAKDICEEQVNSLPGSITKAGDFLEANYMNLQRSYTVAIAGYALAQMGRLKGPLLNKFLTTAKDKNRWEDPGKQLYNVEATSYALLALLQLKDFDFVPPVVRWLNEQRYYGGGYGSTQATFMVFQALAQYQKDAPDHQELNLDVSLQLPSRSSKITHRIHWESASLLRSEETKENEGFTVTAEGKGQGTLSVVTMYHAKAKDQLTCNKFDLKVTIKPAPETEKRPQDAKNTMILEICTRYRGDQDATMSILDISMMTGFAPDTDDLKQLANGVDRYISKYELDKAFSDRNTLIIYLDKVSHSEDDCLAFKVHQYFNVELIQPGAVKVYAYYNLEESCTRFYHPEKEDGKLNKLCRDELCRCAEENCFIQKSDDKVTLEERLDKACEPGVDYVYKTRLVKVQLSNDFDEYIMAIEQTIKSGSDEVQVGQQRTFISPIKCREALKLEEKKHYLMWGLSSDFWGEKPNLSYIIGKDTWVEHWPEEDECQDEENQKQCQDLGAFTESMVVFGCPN
Test Summary: cell-based or functional assay
Answer format: numeric, nM implied, no suffix.

Example binders with recorded EC50 hC3 cleavage:
MTSP-1 protease domain I41T/F97H/F99L/C122S/G151N/Q175H/Q192V/D217L (enzyme) VVGGTDADEGEWPWQVSLHALGQGHTCGASLISPNWLVSAAHCYIDDRGFRYSDPTQWTAFLGLHDQSQRSAPGVQERRLKRIISHPFFNDHTLDYDIALLELEKPAEYSSMVRPISLPDASHVFPAGKAIWVTGWGHTQYGGTNALILQKGEIRVINQTTCENLLPQHITPRMMCVGFLSGGVDSCVGDSGGPLSSVEADGRIFQAGVVSWGLGCAQRNKPGVYTRLPLFRDWIKENTGV = 131
MTSP-1 protease domain Q38H/I41A/D60bV/F60eR/Y60gW/D96P/ins97aN/F97W/T98G/F99L/C122S/G151H/Q175L/Q192D (enzyme) VVGGTDADEGEWPWQVSLHALGHGHACGASLISPNWLVSAAHCYIDVRGRRWSDPTQWTAFLGLHDQSQRSAPGVQERRLKRIISHPFFNPWNGLDYDIALLELEKPAEYSSMVRPISLPDASHVFPAGKAIWVTGWGHTQYGGTHALILQKGEIRVINQTTCENLLPQLITPRMMCVGFLSGGVDSCDGDSGGPLSSVEADGRIFQAGVVSWGDGCAQRNKPGVYTRLPLFRDWIKENTGV = 1.83

Here's the next entry for you.
Requested field: EC50 hC3 cleavage. Item: MTSP-1 protease domain I41E/F97L/F99L/C122S/Q192A (enzyme) VVGGTDADEGEWPWQVSLHALGQGHECGASLISPNWLVSAAHCYIDDRGFRYSDPTQWTAFLGLHDQSQRSAPGVQERRLKRIISHPFFNDLTLDYDIALLELEKPAEYSSMVRPISLPDASHVFPAGKAIWVTGWGHTQYGGTGALILQKGEIRVINQTTCENLLPQQITPRMMCVGFLSGGVDSCAGDSGGPLSSVEADGRIFQAGVVSWGDGCAQRNKPGVYTRLPLFRDWIKENTGV
47.4
